- Test system: Female BALB/c mice
- assay.name: eGFP expression in the liver at 24 hours after intravenous administration of LNP formulations to mouse (ELISA)
- Type: in vivo
- test.settings: Table 3, 0.3 mg/kg, LNP N/P 3:1, DMPE-PEG2000
quantity.kind: Liver eGFP protein (ng/g tissue)

compound: CCCCC/C=C\C/C=C\CCCCCCCCC(CCCCCCCC/C=C\C/C=C\CCCCC)OC(=O)CCCN(C)C [MC3, reference compound]
quantity.unit: ng/g tissue
assay.result: 3091.5
--
compound: CCCCCC(CCCCC)CCOC(=O)CCCCCCCC(CCCCCCCC(=O)OCCC(CCCCC)CCCCC)NCC1CCCO1 (stereo not drawn)
quantity.unit: ng/g tissue
assay.result: 6124.2
--
compound: CCCCCC(CCCCC)CCOC(=O)CCCCCCCC(CCCCCCCC(=O)OCCC(CCCCC)CCCCC)NCC1COCCO1 (stereo not drawn)
quantity.unit: ng/g tissue
assay.result: 3160.9

###

The entries below are paired with their reported Liver eGFP protein (ng/g tissue).
- System: Female BALB/c mice
- assay.name: eGFP expression in the liver at 24 hours after intravenous administration of LNP formulations to mouse (ELISA)
- Assay type: in vivo
- test.settings: Table 4, 0.3 mg/kg, LNP N/P 3:1, DMPE-PEG2000

compound: CCCCCCCCC(CCCCCCCC)OC(=O)CCCCCCCC(CCCCCCCC(=O)OCC(CCCCCCC)CCCCCCC)NC1CC2(COC2)C1 (centres unmarked)
Liver eGFP protein (ng/g tissue): 1056.2
--
compound: CCCCCC(CCCCC)CCOC(=O)CCCCCCCCC(CCCCCCCCC(=O)OCCC(CCCCC)CCCCC)NCC1CCCCO1 (centres unmarked)
Liver eGFP protein (ng/g tissue): 1393.4
--
compound: CCCCCCCCC(C)OC(=O)CCCCCCC(CCCCCCC(=O)OC(CCCCCCCC)CCCCCCCC)NC1CC2(COC2)C1 (centres unmarked)
Liver eGFP protein (ng/g tissue): 15961.7
--
compound: CCCCCCCCC(C)OC(=O)CCCCCCCC(CCCCCCCC(=O)OC(CCCCCCCC)CCCCCCCC)NC1CC2(COC2)C1 (centres unmarked)
Liver eGFP protein (ng/g tissue): 16518.2
--
compound: CCCCCCCC(CCCCCCC)COC(=O)CCCCCCC(CCCCCCC(=O)OCC(CCCCCCC)CCCCCCC)NC1CC2(COC2)C1
Liver eGFP protein (ng/g tissue): 9557.1
--
compound: CCCCCCCCC(C)OC(=O)CCCCCCC(CCCCCCC(=O)OCC(CCCCCCC)CCCCCCC)NC1CC2(COC2)C1 (centres unmarked)
Liver eGFP protein (ng/g tissue): 1288.4
--
compound: CCCCCC(CCCCC)CCOC(=O)CCCCCCCCC(CCCCCCCCC(=O)OCCC(CCCCC)CCCCC)NCC1COC1
Liver eGFP protein (ng/g tissue): 6817.5
--
compound: CCCCCCCCC(CCCCCCCC)OC(=O)CCCCCCC(CCCCCCC(=O)OC(CCCCCCCC)CCCCCCCC)NC1CC2(COC2)C1
Liver eGFP protein (ng/g tissue): 2318.8
--
compound: CCCCC/C=C\C/C=C\CCCCCCCCC(CCCCCCCC/C=C\C/C=C\CCCCC)OC(=O)CCCN(C)C [MC3, reference compound]
Liver eGFP protein (ng/g tissue): 916.4
--
compound: CCCCCCC(CCCCCC)COC(=O)CCCCCCCC(CCCCCCCC(=O)OCC(CCCCCC)CCCCCC)NC1CC2(COC2)C1
Liver eGFP protein (ng/g tissue): 11015.4
--
compound: CCCCCCCCC(CCCCCCCC)OC(=O)CCCCCCC(CCCCCCC(=O)OCCCCCCCC(C)C)NC1CC2(COC2)C1 (centres unmarked)
Liver eGFP protein (ng/g tissue): 824.8
--
compound: CCCCCCCCC(CCCCCCCC)OC(=O)CCCCCCC(CCCCCCC(=O)OCCC(CCCCCCC)CCCCCCC)NC1CC2(COC2)C1 (centres unmarked)
Liver eGFP protein (ng/g tissue): 4982.6
--
compound: CCCCCCCCC(CCCCCCCC)OC(=O)CCCCCCCC(CCCCCCCC(=O)OC(CCCCCCCC)CCCCCCCC)NC1CC2(COC2)C1
Liver eGFP protein (ng/g tissue): 1319.3
--
compound: CCCCCC(CCCCC)CCOC(=O)CCCCCC(CCCCCC(=O)OCCC(CCCCC)CCCCC)NC1CCOCC1
Liver eGFP protein (ng/g tissue): 9082.2

###

- assay.name: LNP particle size by dynamic light scattering (Zetasizer Nano ZS)
- Format: physicochemical
- test.settings: Table 6; N/P ratio 3:1; DMPE-PEG2000
Assign labels as follows, please: 1 for <d>Z (nm) below 70 nm; -1 for <d>Z (nm) equal to or exceeding 70 nm.

compound: CCCCCCCCC(CCCCCCCC)OC(=O)CCCCCCCC(CCCCCCCC(=O)OC(C)CCCCC)NCC1CCOC1 (stereo not drawn) [Compound 48]
label.value: -1
--
compound: CCCCC/C=C\C/C=C\CCCCCCCCC(CCCCCCCC/C=C\C/C=C\CCCCC)OC(=O)CCCN(C)C [MC3, reference compound]
label.value: -1
--
compound: CCCCCCCCCCC(C)OC(=O)CCCCCC(CCCCCCCC(=O)OC(CCCCCCCC)CCCCCCCC)NC1CC2(COC2)C1 (stereo not drawn) [Compound 56]
label.value: -1
--
compound: CCCCCCCCC(CCCCCCCC)OC(=O)CCCCCCCC(CCCCCCCC(=O)OC(CC)CCCCC)NC1CC2(COC2)C1 (stereo not drawn) [Compound 46]
label.value: -1
--
compound: CCCCCCCCCC(=O)OCCCCCCCC(CCCCCCCC(=O)OC(CCCCCCCC)CCCCCCCC)NC1CC2(COC2)C1 (stereo not drawn) [Compound 54]
label.value: -1
--
compound: CCCCCCCCC(CCCCCCCC)OC(=O)CCCCCCCC(CCCCCCCC(=O)OC(C)(C)CCCCCCCC)NC1CC2(COC2)C1 (stereo not drawn) [Compound 53]
label.value: 1
--
compound: CCCCCCCCC(CCC)OC(=O)CCCCCCCC(CCCCCCCC(=O)OC(CCCCCCCC)CCCCCCCC)NC1CC2(COC2)C1 (stereo not drawn) [Compound 50]
label.value: 1
--
compound: CCCCCCCCC(CCCCCCCC)OC(=O)CCCCCCCC(CCCCCCCCCC(=O)OC(C)CCCCCC)NC1CC2(COC2)C1 (stereo not drawn) [Compound 55]
label.value: -1
--
compound: CCCCCCCCC(CCCCCCCC)OC(=O)CCCCCCCC(CCCCCCCC(=O)OC(CC)CCCC)NCC1CCOC1 (stereo not drawn) [Compound 47]
label.value: -1
--
compound: CCCCCCCCC(CCCCCCCC)OC(=O)CCCCCCCC(CCCCCCCC(=O)OCC1CC1CCCCCC)NCC1COC1 (stereo not drawn) [Compound 51]
label.value: 1

###

- assay.name: mRNA encapsulation efficiency of LNP formulations (Quant-it Ribogreen assay with Triton-X100)
- Assay type: physicochemical
- test.settings: Table 4; N/P ratio 3:1; DMPE-PEG2000
- Experimental: A solution of eGFP mRNA (purchased from TriLink Biotechnologies) in citrate buffer was prepared by mixing mRNA dissolved in MilliQ-water, 100 mM citrate buffer (pH 3) and MilliQ-water to give a solution of 50 mM citrate. […] The final mRNA concentration and encapsulation efficiency percentage (% EE) was measured by Quant-it Ribogreen Assay Kit (ThermoFischer Scientific Inc.) using Triton-X100 to disrupt the LNPs. The mRNA encapsulation efficiency was determined according to the following equation: […]

compound: CCCCCCCCCOC(=O)CCCCCCC(CCCCCCC(=O)OC(CCCCCCCC)CCCCCCCC)NC1CC2(COC2)C1 (stereo not shown)
% EE (%): 94
--
compound: CCCCCCCCC(C)OC(=O)CCCCCCC(CCCCCCC(=O)OC(CCCCCCCC)CCCCCCCC)NC1CC2(COC2)C1 (stereo not shown)
% EE (%): 94
--
compound: CCCCCCCCC(CCCCCCCC)OC(=O)CCCCCCC(CCCCCCC(=O)OCCCCCCCC(C)C)NC1CC2(COC2)C1 (stereo not shown)
% EE (%): 94
--
compound: CCCCC/C=C\C/C=C\CCCCCCCCC(CCCCCCCC/C=C\C/C=C\CCCCC)OC(=O)CCCN(C)C [MC3, reference compound]
% EE (%): 98

###

- assay.name: LNP particle size by dynamic light scattering (Zetasizer Nano ZS)
- Format: physicochemical
- test.settings: Table 6; N/P ratio 3:1; DMPE-PEG2000
Assign labels as follows, please: satisfied for <d>N (nm) below 60 nm; not satisfied for <d>N (nm) equal to or exceeding 60 nm.

compound: CCCCCCCCC(CCC)OC(=O)CCCCCCCC(CCCCCCCC(=O)OC(CCCCCCCC)CCCCCCCC)NC1CC2(COC2)C1 (stereo not shown)
label.value: satisfied

compound: CCCCCCCCC(CCCCCCCC)OC(=O)CCCCCCCC(CCCCCCCC(=O)OC(C)(C)CCCCCCCC)NC1CC2(COC2)C1 (stereo not shown)
label.value: satisfied

compound: CCCCCCCCCC(=O)OCCCCCCCC(CCCCCCCC(=O)OC(CCCCCCCC)CCCCCCCC)NC1CC2(COC2)C1 (stereo not shown)
label.value: not satisfied

compound: CCCCCCCCC(CCCCCCCC)OC(=O)CCCCCCCC(CCCCCCCC(=O)OCC1CC1CCCCCC)NCC1CCOC1 (stereo not shown)
label.value: satisfied

compound: CCCCCCCCC(CCCCCCCC)OC(=O)CCCCCCCC(CCCCCCCCCC(=O)OC(C)CCCCCC)NC1CC2(COC2)C1 (stereo not shown)
label.value: not satisfied
